Give Trimeric HA Binding: RLU for every item shown.
biological target: recombinant soluble homotrimeric HA of A/duck/Yangzhou/02/05 (H8N4) (Influenza A virus A/duck/Yangzhou/02/2005(H8N4)); test: trimeric HA microarray, transfection supernatant set 3; conditions: remark: other sources report otherwise
Numbers only, in RLU.

Solved cases (2 shown):
[
  {
    "binder": "TCN-504 (3251_K17) (antibody, V domains shown) VH: QVQLQESGPGLVKPSETLSLTCAVSGVSISNIDFYWGWIRQPPGKGLEWIGNIYYTGITFYNPSLSSRVAISIDTSKNQFSLTLTSVTAADTAMYYCARHYGDSEAINDAFDIWGQGTMLTVSS VL: EIVMTQSPATLSVSPGERATLSCRASQSVGNSLAWYQQRPGQAPRLLIYGASTRATGIPPRFSGSGSGTEFTLTISSLQTEDFAVYYCQQYINWRPLSFGGGTKVEIK",
    "measured_attribute": "Trimeric HA Binding: RLU",
    "measured_value": 19600
  },
  {
    "binder": "TCN-530 (5248_H10a) (antibody, V domains shown) VH: QVQLVQSGAEVRKPGSSVKVSCKASGGPFMSYAIGWVRQAPGQGLEWMGGINPVFGRPHYAQKFQGRVTIATDDSTKTSYMELSSLTSEDTGMYYCASRYSRSSPGTFESWGQGTLVTVSS VL: EIVMTQFPATLSVSPGERVTLSCRASQSVSNNLAWYQQKPGQPPRLLIYDASTRATGVPAKFSGTGSGTEFTLSISSLQSEDFAVYYCQQYHNWPPSYSFGLGTKLEIK",
    "measured_attribute": "Trimeric HA Binding: RLU",
    "measured_value": 227
  }
]

Could you now consider this next binder?
// returns reported Trimeric HA Binding: RLU for input TCN-529 (5297_H01) (antibody, V domains shown) VH: QITLRESGPTLVKPTQTLTLTCTFSGFSLSTNGVNVGWIRQPPGKALEWLALIYWDDDKRYSPSLKRRLTITKDTSKNQVVLTLTNMDPVDTATYYCAHRPDFYGDFEYWGPGTLVTVSS VL: QSALTQPASVSGSPGQSITISCTGSSSDIGGYNYVSWYQQHPGKAPKLMIYDVNNRPSGVSNRFSGSKSGNTASLTISGLQTDDEADYYCGSYTGSPHYVFGTGTKVTVL
48
